Measurement Target: composite Cel-L-AChR with Dim-ACR-8 (29/38/63/L1 + Dim-ACR-8)
Construct: mixed-species complex of whole subunits; cRNA in Xenopus laevis oocytes with C. elegans RIC-3, UNC-50, UNC-74; LEV-8 replaced by D. immitis ACR-8
Sequence (A0A2I6TEL0 22-518): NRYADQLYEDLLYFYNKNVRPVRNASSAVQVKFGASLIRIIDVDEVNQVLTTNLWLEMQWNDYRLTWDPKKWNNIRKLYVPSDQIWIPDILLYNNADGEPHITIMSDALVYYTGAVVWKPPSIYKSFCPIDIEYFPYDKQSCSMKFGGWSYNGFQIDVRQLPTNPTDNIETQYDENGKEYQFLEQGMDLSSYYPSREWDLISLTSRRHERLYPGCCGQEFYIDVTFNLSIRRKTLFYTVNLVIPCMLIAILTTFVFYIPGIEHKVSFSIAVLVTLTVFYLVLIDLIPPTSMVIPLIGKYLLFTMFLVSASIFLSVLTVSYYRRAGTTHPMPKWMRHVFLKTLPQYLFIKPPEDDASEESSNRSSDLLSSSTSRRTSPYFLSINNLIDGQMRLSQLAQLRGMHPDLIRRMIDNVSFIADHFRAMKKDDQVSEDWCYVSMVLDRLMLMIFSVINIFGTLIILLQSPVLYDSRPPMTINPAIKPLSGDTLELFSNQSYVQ
Sequence (Q23022 17-511, further chain): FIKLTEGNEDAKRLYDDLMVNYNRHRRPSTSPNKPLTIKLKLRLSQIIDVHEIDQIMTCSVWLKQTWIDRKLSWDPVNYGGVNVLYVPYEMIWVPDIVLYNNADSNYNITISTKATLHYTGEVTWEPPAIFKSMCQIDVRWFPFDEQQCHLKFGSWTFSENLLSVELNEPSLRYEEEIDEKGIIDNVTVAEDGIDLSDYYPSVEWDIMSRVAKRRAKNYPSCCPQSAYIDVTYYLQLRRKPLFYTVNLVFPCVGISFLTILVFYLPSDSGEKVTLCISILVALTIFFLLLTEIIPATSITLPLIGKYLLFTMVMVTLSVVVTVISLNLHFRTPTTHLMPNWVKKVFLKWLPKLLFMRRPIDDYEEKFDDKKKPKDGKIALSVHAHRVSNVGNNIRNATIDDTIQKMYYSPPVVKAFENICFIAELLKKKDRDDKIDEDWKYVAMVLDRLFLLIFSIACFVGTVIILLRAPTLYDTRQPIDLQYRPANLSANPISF
Sequence (Q9N587 24-502, further chain): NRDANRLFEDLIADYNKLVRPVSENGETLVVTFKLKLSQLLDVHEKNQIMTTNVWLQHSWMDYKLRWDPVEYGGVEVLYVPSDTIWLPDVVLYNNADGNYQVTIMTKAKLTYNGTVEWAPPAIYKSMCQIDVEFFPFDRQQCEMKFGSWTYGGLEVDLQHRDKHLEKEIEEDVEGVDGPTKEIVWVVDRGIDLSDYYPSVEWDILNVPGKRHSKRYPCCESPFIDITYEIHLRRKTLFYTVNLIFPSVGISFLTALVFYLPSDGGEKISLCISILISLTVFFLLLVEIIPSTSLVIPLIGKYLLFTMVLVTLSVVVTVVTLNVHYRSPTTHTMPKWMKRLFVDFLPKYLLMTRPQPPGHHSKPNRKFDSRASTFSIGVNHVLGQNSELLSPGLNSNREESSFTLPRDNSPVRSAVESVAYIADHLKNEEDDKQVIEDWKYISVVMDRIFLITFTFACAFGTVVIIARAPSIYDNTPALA
Sequence (P48181 27-493, further chain): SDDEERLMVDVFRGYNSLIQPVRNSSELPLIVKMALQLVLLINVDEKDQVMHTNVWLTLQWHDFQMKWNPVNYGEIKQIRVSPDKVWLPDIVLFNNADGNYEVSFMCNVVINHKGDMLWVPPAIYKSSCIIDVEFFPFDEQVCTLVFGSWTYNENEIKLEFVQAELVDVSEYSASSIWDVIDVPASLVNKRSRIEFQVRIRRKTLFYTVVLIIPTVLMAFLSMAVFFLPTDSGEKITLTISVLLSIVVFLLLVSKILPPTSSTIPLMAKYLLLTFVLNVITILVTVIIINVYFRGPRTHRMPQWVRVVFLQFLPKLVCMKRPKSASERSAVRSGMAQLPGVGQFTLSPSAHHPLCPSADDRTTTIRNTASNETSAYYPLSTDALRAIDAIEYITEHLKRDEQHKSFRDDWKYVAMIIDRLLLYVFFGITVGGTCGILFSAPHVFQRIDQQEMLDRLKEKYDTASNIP
Sequence (Q27218 32-507, further chain): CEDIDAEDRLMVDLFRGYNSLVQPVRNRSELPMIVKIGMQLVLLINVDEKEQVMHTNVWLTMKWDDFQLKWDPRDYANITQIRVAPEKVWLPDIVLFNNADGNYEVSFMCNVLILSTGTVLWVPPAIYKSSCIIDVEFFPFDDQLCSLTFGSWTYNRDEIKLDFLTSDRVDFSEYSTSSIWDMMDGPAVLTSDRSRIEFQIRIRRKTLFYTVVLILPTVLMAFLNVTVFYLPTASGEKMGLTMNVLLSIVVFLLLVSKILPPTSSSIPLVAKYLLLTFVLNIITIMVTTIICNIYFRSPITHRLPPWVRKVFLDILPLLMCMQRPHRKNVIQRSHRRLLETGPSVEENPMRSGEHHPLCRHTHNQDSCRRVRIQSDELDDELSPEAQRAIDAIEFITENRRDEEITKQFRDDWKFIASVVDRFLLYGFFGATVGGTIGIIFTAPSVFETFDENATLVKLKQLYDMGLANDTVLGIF
Protocol Notes: two-electrode voltage clamp, Xenopus oocytes
Condition Notes: read-out: Lev EC50; agonist; responses normalized to 100 μM ACh
Measured Property: pEC50
Answer as the number alone; pEC50 is minus log10 of concentration in mol/L.

Problem: Quick check: pEC50 of c1ccc([C@H]2CN3CCSC3=N2)cc1 ?
Solution: 5.23
